- Test system: Plasmodium falciparum Dd2-attB (parental line), asexual blood stages
- Construct: Dd2-attB, the isogenic parental line
- Run description: microbe, parasite or virus in culture
- Design: species or system P. falciparum Dd2-attB in human erythrocytes; SYBR Green-I proliferation assay, Dd2-attB parental line, asexual blood stages
- Measurement conditions: Plasmodium falciparum, DD2, Erythrocyte, 72 h, read-out: Calculated / Average Log AC50 (M), mean of replicates, 72 h (converted)
A collection of compounds and their measured AC50
I only need the number, in M, no unit after it.

{"columns": ["Compound", "Readout", "Quantitative readout"],
 "data": [
  ["CN(Cc1ccco1)Cc1ccc(O)c2ncccc12 [NCGC00183374-01]", "AC50", "1.47e-05"]
]}

Which AC50 is listed for Cc1cccc(C)c1Nc1c(-c2cccs2)nc2ncccn12 [NCGC00107923-03] ?
5.03e-07

Which AC50 is listed for COC(=O)c1ccnc2cc(C(OCCN3CCCCC3)c3ccccc3Cl)sc12 (stereo not drawn) [NCGC00481502-01] ?
1.26e-05

Which AC50 is listed for CN(C)CCCNC(=O)c1ccccc1-c1cc(O)c2ncccc2c1 [NCGC00247753-01] ?
1.47e-05

Which AC50 is listed for CCOC(=O)c1ccnc(CNCC(=O)N(CC)CCN(C)C)c1 [NCGC00371443-05] ?
1.47e-07

###

A collection of molecules and their measured activity at 1 µM
- System: P. berghei-ANKA-GFP-LucCON liver stage parasites in HepG2-A16-CD81EGFP cells
- Run description: P. berghei liver stage Pb-Luc assay, Method 1 (UCSD, 1536-well)
- Type: cell-based, Plasmodium berghei
- Measurement conditions: Plasmodium berghei, 48 h, P. berghei liver stage, 1 µM compound treatment (10 mM stocks), replicate 1, normalized, average of 2 wells on a 1536 well plate; read-out: PbLuc 1uM growth rep1
Dear colleague, please send the value followed by its unit.

// below: answered molecules
{"columns": ["Molecule", "activity at 1 µM"],
 "data": [
  ["Cc1nn(-c2ccccc2)c(C)c1/C=N/Nc1nc2ccccc2[nH]1", "86%"],
  ["Cc1nc2ccc(NC(=O)c3cc(S(=O)(=O)N(C)c4ccccc4)ccc3Cl)cc2s1", "19%"],
  ["Cc1ccc(-c2nn(-c3ccccc3)c3[nH]c(=O)c(CNCc4ccccc4)cc23)cc1", "76%"],
  ["CCN(CC)CCN1C(=O)c2ccccc2NC1c1ccc(Br)cc1 (stereo not drawn)", "82%"],
  ["CCn1cnc2c(Nc3cc(F)cc(F)c3)nc(C#N)nc21", "155%"]
]}

Return activity at 1 µM measured with P. berghei-ANKA-GFP-LucCON liver stage parasites in HepG2-A16-CD81EGFP cells given this molecule: COc1ccc(-n2nc(C(=O)NCC(=O)N3CCN(c4ccccc4OC)CC3)c3ccccc3c2=O)c(OC)c1
82%

###

- Test system: HepG2
- Measurement conditions: human, hepg2 cells, 48 h
A collection of molecules and their measured Log AC50 (M)
I only need the number, in M, no unit after it.

{"columns": ["Molecule", "Log AC50 (M)"],
 "data": [
  ["CCO.Nc1nc(N)c2cc(Sc3ccc4ccccc4c3)ccc2n1", -4.5643]
]}

Which Log AC50 (M) is listed for COc1ccc2nc(C)cc(NCc3cccc(C(F)(F)F)c3)c2c1 ?
-4.5143

Which Log AC50 (M) is listed for CN1C2CCC1/C(=C/c1ccccn1)C(=O)/C2=C\c1ccccn1 ?
-4.8143

Which Log AC50 (M) is listed for CCc1ccc(NC(=O)C2CCN(c3cc(C(F)(F)F)ncn3)CC2)cc1 ?
-4.4643

Which Log AC50 (M) is listed for COc1cc(C2CC(=O)N(Cc3ccc(F)cc3)c3ccccc3S2)cc(OC)c1OC (centres unmarked) ?
-4.5643

###

A collection of molecules and their measured AC50
- Test system: P. falciparum Dd2 Cytb G131S
- Run description: SYBR Green ABS proliferation assay, NCGC00374598 selected clone C11
- Type: cell-based, Plasmodium falciparum
- Measurement conditions: Plasmodium falciparum, DD2, […]; averaged from three independent replicates; top concentration 29 µM; read-out: Average AC50 (Log[M]), NCGC00374598 clone C11 (Cytb G131S) (converted)

// below: answered molecules
{"columns": ["Smiles representation", "AC50"],
 "data": [
  ["CCCN1C(CC(C)C)=N[S+](=O)([O-])c2cc(NC(=O)Nc3ccccc3)ccc21", "7.96e-06 M"],
  ["CCCN1C(CC(C)C)=N[S+](=O)([O-])c2cc(NC(=O)c3cc(C)on3)ccc21", "1.26e-05 M"],
  ["CCCN1C(CC(C)C)=N[S+](=O)([O-])c2cc(NC(=O)c3cc(F)cc(F)c3)ccc21", "5.02e-06 M"],
  ["CCCN1C(CC(C)C)=N[S+](=O)([O-])c2cc(NC(=O)c3cncnc3)ccc21", "4.48e-06 M"],
  ["CCCN1C(CC(C)C)=N[S+](=O)([O-])c2cc(NC(=O)c3ccc(F)cc3F)ccc21", "2e-06 M"],
  ["CCCN1C(CC(C)C)=N[S+](=O)([O-])c2cc(NC(=O)c3ccccc3F)ccc21", "4.48e-06 M"]
]}

Kindly review the next molecule as well.
Which AC50 is listed for CCCN1C(CC(C)C)=N[S+](=O)([O-])c2cc(NC(=O)c3cn(-c4ccccc4)cn3)ccc21 ?
2.62e-07 M

###

A collection of molecules and their measured Average P. berghei 1 µM response (%)
- Tested on: P. berghei-ANKA-GFP-LucCON liver stage parasites in HepG2-A16-CD81EGFP cells
- Run description: P. berghei liver stage Pb-Luc assay, Method 1 (UCSD, 1536-well)
- Assay type: cell-based, Plasmodium berghei
- Measurement conditions: P. berghei liver stage; the header list (r8) defines it as the 1 µM dose, averaged response (percent)
I only need the number, in %, no unit after it.

// below: answered molecules
{"columns": ["Smiles representation", "System tested", "Average P. berghei 1 µM response (%)"],
 "data": [
  ["Cc1cc(Cl)c(S(=O)(=O)N2CCN(c3ccccn3)CC2)cc1OCC(=O)NC1CCCCC1", "P. berghei-ANKA-GFP-LucCON liver stage parasites in HepG2-A16-CD81EGFP cells", 99],
  ["c1ccc(CNc2nc(-c3ccccn3)nc3ccccc23)cc1", "P. berghei-ANKA-GFP-LucCON liver stage parasites in HepG2-A16-CD81EGFP cells", 72],
  ["CCOC(=O)Cn1c2c(c(=N)c3c1CCC3)CCCC2", "P. berghei-ANKA-GFP-LucCON liver stage parasites in HepG2-A16-CD81EGFP cells", 95]
]}

Kindly review the next molecule as well.
Return Average P. berghei 1 µM response (%) measured with P. berghei-ANKA-GFP-LucCON liver stage parasites in HepG2-A16-CD81EGFP cells given this molecule: Cc1cc(O)c(CN2CCN(c3ccccc3)CC2)cc1C
88

###

- Test system: HepG2-A16-CD81EGFP cells
- Measurement conditions: nominal 3 uM (10 mM stock); 4.5 uM for 15 mM, 3.6 uM for 12 mM, 6 uM for 20 mM stock; average of 2 wells; repeat 2
Readout: HepG2 viability signal, 3 uM, repeat 2 (%)
I only need the number, in %, no unit after it.

// below: answered compounds
{"columns": ["Compound", "Unit annotation", "Quantitative readout"],
 "data": [
  ["COc1ccc(CN[C@@H]2C=C[C@@H](c3c(C)nn(-c4ccc(OC)cc4)c3C)C2)cc1 [NCGC00401425-01]", "%", 99.98],
  ["Cc1ccc(C)c(Cn2c(=O)n(CCCCC(=O)NCc3ccc4c(c3)OCO4)c(=O)c3ccccc32)c1 [NCGC00106276-01]", "%", 103.78],
  ["COc1ccc(CN2CCCC3(C2)C(NC2CCCCC2)=NC(=O)N3c2cc(F)cc(F)c2)cc1 (centres unmarked) [NCGC00373972-01]", "%", 99.86]
]}

Which HepG2 viability signal, 3 uM, repeat 2 is listed for COc1ccc(C2Sc3ccccc3N=C3C2=C(O)c2ccccc23)c(OC)c1OC (centres unmarked) [NCGC00108825-01] ?
66.08

Which HepG2 viability signal, 3 uM, repeat 2 is listed for Cn1nnnc1SCCCNCc1cccc(OCc2ccccc2)c1 [NCGC00117957-01] ?
103.35

Which HepG2 viability signal, 3 uM, repeat 2 is listed for Cc1nn2c(c1-c1ccccc1-c1ccccc1)N(CCC(C)C)CCC2 [NCGC00420437-01] ?
19.77

Which HepG2 viability signal, 3 uM, repeat 2 is listed for CCOc1ccccc1CN1CCCN(Cc2ccncc2)C(c2ccccc2)CC(=O)NCC1 (centres unmarked) [NCGC00467181-01] ?
96.24

Which HepG2 viability signal, 3 uM, repeat 2 is listed for COc1ccc(N2CCN(c3cc(C4CC(N)C4)nc(N)n3)CC2(C)C)cc1 (centres unmarked) [NCGC00422579-01] ?
97.69
